assay: Cyclic voltammetry in acetonitrile; format: physicochemical; conditions: second reduction wave, acetonitrile, vs SCE, scan rate 0.100 V·s−1
Respond with Satisfied for Epc (II) values of -1 V and above, Not satisfied for values below.

>>> classification("N#Cc1ccc(NC2=CC(=O)C(=O)c3ccccc32)cc1 [Compound 4d]")
"Satisfied"
>>> classification("COc1ccc(NC2=CC(=O)c3ccccc3C2=O)cc1 [Compound 3c, 2-(4-methoxyaniline)-1,4-naphthoquinone]")
"Not satisfied"
>>> classification("O=C1C=CC(=O)c2ccccc21 [Compound 1, 1,4-naphthoquinone, reference compound]")
"Not satisfied"
>>> classification("CCCCNC1=CC(=O)c2ccccc2C1=O [Compound 3e, 2-(butan-1-amine)-1,4-naphthoquinone]")
"Not satisfied"
>>> classification("Nc1ccc(NC2=CC(=O)c3ccccc3C2=O)cc1 [Compound 3a]")
"Not satisfied"
>>> classification("O=C1C=C(Nc2ccc(Nc3ccccc3)cc2)c2ccccc2C1=O [Compound 4g]")
"Not satisfied"
>>> classification("CCN(CC)C1=CC(=O)C(=O)c2ccccc21 [Compound 4f, 4-(diethylamine)-1,2-naphthoquinone]")
"Satisfied"
